molecular target: JAK3 (Homo sapiens, UniProt P52333); construct: All four purified enzymes contain only the catalytic domain; His (N); purchased Carna Biosciences, Inc; host or cells: baculovirus expression system; experiment: JAK3 kinase assay (HTRF, inhibition of phosphorylation of a synthetic peptide); assay type: biochemical; conditions: catalytic domain, His-tag; 2 μM ATP (Km); read-out: JAK3 kinase inhibitory activity (EC50)
Sequence (P52333 822-1111 limits assumed): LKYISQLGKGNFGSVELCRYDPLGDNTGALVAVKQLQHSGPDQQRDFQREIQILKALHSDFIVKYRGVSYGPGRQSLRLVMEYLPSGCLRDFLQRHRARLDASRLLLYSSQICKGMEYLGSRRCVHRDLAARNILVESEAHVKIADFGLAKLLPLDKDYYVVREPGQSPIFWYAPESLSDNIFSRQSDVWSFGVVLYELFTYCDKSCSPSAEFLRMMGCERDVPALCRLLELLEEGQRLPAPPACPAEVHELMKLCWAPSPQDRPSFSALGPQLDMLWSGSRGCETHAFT
pEC50: −log10 of the molar value.
Kindly state pEC50 for each of the entries shown.

Q) For the compound shown here, "O=C(c1cccc(O)n1)N1CCCN(c2ncnc3[nH]ccc23)CC12CC2" , give the reported pEC50.
A) < 6.00

Q) Again, but for "O=C(CN1CCOC1=O)N1CCN(c2ncnc3[nH]ccc23)CC2(CC2)C1"
A) 6.00 to 7.00

Q) Again, but for "O=C(c1nc[nH]n1)N1CCN(c2ncnc3[nH]ccc23)CC2(CC2)C1"
A) < 6.00

Q) Again, but for "Cc1nnc(C(=O)N2CCCN(c3ncnc4[nH]ccc34)CC23CC3)o1"
A) 6.00 to 7.00

Q) Again, but for "N#Cc1ccc(CC(=O)N2CCCN(c3ncnc4[nH]ccc34)CC23CC3)cc1"
A) < 6.00

Q) Again, but for "Cc1ncoc1C(=O)N1CCCN(c2ncnc3[nH]ccc23)CC12CC2"
A) 6.00 to 7.00

Q) Again, but for "O=C(c1cccnc1)N1CCN(c2ncnc3[nH]ccc23)CC2(CC2)C1"
A) < 6.00
